System: HS 578T breast
Test: NCI-60 one-dose screen, 48 h
Conditions: 10 µM unless noted
This is part of a sample that, as a whole, favours compounds with a hit. Of some 83,000 tested, about 20% had one in any assay. Active and inactive are the calls of the source. How the source made its calls: active means growth percent below 10; inactive means the rest.
Labels: active, inactive

• COc1ccc(N2CCN(c3ccc(NC4=C(Cl)C(=O)c5ncccc5C4=O)cc3)CC2)cc1 = inactive
• O=C1c2cccc3c(-c4ccc5c(c4)ncn5C4CCCCC4)ccc(c23)C(=O)N1c1nc2ccccc2s1 = inactive
• C=C(C)[C@@H]1CC[C@]2(C(=O)N3CCN(C)CC3)CC[C@]3(C)[C@H](CC[C@@H]4[C@@]5(C)CC[C@H](O)C(C)(C)[C@@H]5CC[C@]43C)[C@@H]12 = active
• CCCOc1ccc(/C=N/Nc2cc(C)nc3ccc(Cl)cc23)cc1 = inactive
• COc1cc(/C=N/O)nc(-c2ccccn2)c1 = inactive
• COc1cc(/C=C/c2cc(O)c(C(C)=O)c(O)c2)cc2c1O[C@]1(C)CC[C@@H](O)C(C)(C)[C@H]1C2 = inactive
• O=C1c2c(c3c4cccc(F)c4[nH]c3c3ccc4ccccc4c23)C(=O)N1O = inactive
• O=C(NCCc1ccccc1)Nc1ccc2cc3ccc(NC(=O)NCCc4ccccc4)cc3nc2c1 = active
• Nc1ccccc1NC(=O)c1ccc(-n2nc(-c3ccccc3)c3ccccc32)cc1 = inactive
• CC(=O)[C@H]1CCC/C=C/[C@@H]2C[C@H](O)C[C@H]2[C@H](O)/C=C/C(=O)O1 = inactive
• N#C/C(=C\c1ccc(Cl)cc1)n1nnc2cc(F)c(F)cc21 = inactive
• NS(=O)(=O)c1ccc(CCN2C(=O)c3cc(Cl)c(Cl)cc3C2=O)cc1 = inactive

====

growth values for the compounds below.
System: OVCAR-3 ovarian
Assay: NCI-60 one-dose screen, 48 h (100 = growth as untreated, 0 = no growth, -100 = all killed)
Conditions: 10 µM unless noted
The panel holds about 83,000 compounds, 20% with a hit somewhere; the sample as a whole holds those more often. Activity calls are given as the source filed them. How the source made its calls: active means growth percent below 10; inactive means the rest.
measured-property: growth

- Cc1ccccc1NS(=O)(=O)c1cccc(C(=O)Nc2ccc(Br)cc2)c1: 47.3% [25 µM] (inactive)
- N#Cc1c(NC(=O)NCc2ccccc2)sc2c1CCCC2: -15.7% (active)
- CC(=O)Oc1ccc(/C=N/NC(N)=S)nc1: 68% (inactive)
- Nc1c(C(=O)Nc2cccc3cnccc23)sc2nc3c(cc12)C(=O)CCC3: 93.4% (inactive)
- Cc1ccc(C(=O)/C(=C\c2ccc([N+](=O)[O-])cc2)S(=O)Cc2ccc(Cl)cc2)cc1 (configuration not stated): 22.4% (inactive)
- OC(c1cccc(C(F)(F)F)c1)c1cnccc1NC1CCCCC1 (configuration not stated): 81.1% (inactive)
- CCCCCCCC(=O)OCC/C=C/C1OC1C1OC(=O)/C=C\C=C\C(=O)N(C(C)=O)C(=O)/C=C(/C)CCC2OC2C1OC(=O)NC(C)=O (configuration not stated): 61.2% (inactive)
- O=C1c2ccc3c4c(ccc(c24)C(=O)N1CCCNCc1ccccc1Cl)C(=O)N(CCCNCc1ccccc1Cl)C3=O: -64.4% (active)
- OC(c1ccc(F)c(C(F)(F)F)c1)c1cnccc1NC1CCCCC1 (configuration not stated): 72.3% (inactive)
- CN(CCN(C)c1ccc(C(=N)N)cc1)c1ccc(C(=N)N)cc1: 87.9% (inactive)
- COc1ccc(C(=O)c2cc(OC)c(OC)c(OC)c2)cc1O: -6.73% (active)
- O=c1[nH]nc(-c2ccccc2)c2sc3ncc(-c4ccc(Br)cc4)n3c12: 0.339% (active)
- O=C1Nc2cc(-c3ccc(NC(=O)C4CC4)cc3)ccc2/C1=C/c1ccc[nH]1: 110% (inactive)
- COC(=O)C1=C(C(=O)ON)[C@@H]2C=C[C@@]1([C@@H](Cc1ccccc1)Nc1ccccc1)O2: -79.1% (active)
- COc1cc2c(=O)n(CCN)c3c4cc5c(cc4ccc3c2cc1OC)OCO5: -79.3% (active)
- COc1cc(/C=C2\COc3ccc(-c4ccccc4)cc3C2=O)cc(OC)c1: 69% (inactive)
- CCOC(=O)c1cc(C(=O)c2ccc(OC)c(OC)c2)n2c1ccc1ccccc12: 99.6% (inactive)

====

Test system: CCRF-CEM leukemia
Test: NCI-60 one-dose screen, 48 h (100 = growth as untreated, 0 = no growth, -100 = all killed)
Conditions: 10 µM unless noted
The panel holds about 83,000 compounds, 20% with a hit somewhere; the sample as a whole holds those more often. Active and inactive are the calls of the source. Rule for the calls: active = growth percent below 10; inactive = the rest.
growth values for the molecules below.
measured-property: growth

* CCOC(=O)c1ccc2c(c1)ncn2-c1ccc(NC(=O)Nc2cccc(C)c2)cc1 | 45.8% (inactive)
* Cc1ccc(CNc2c3ccccc3nc3cc(NC(=O)CCN4CCCC4)ccc23)cc1 | -31.5% (active)
* O=C1Nc2cc(-c3ccc(NC(=O)C4CC4)cc3)ccc2/C1=C/c1ccc[nH]1 | 98.7% (inactive)
* CC(=O)Nc1ccc(-n2cnc3cc(-c4ccc(OCCN5CCCCC5)cc4)ccc32)cc1 | 54.8% (inactive)
* CC(=O)N1N=C(c2ccc(-n3ccc(C(F)(F)F)n3)c(F)c2)CC1c1ccc[nH]1 (stereo unspecified) | 93.7% (inactive)
* COc1ccc(-c2cnc3c(-c4cccc5ncccc45)cnn3c2)cc1 | 98.4% (inactive)

====

System: OVCAR-8 ovarian
Assay: NCI-60 one-dose screen, 48 h (100 = growth as untreated, 0 = no growth, -100 = all killed)
Conditions: 10 µM unless noted
About 83,000 compounds went through this panel and 20% of them were active in at least one assay; those are over-represented in the sample as a whole.
growth values for the compounds below.
measured-property: growth (%)

• [O-][n+]1c(Cl)cc(Cl)c2ccccc21 = 87.4
• CNCCn1c(=O)c2cc(OC)c(OC)cc2c2ccc3cc4c(cc3c21)OCO4 = 10.2
• Cc1ccc(C(=O)/C(=C\c2ccc([N+](=O)[O-])cc2)S(=O)Cc2ccc(Cl)cc2)cc1 (centres undefined) = 25.6
• C=CC(=O)N[C@@H](/C=C/C(=O)OCC)Cc1ccc(-c2cc(Cl)cc(Cl)c2)cc1 = 16.8

====

Tested on: MOLT-4 leukemia
Experiment: NCI-60 one-dose screen, 48 h (100 = growth as untreated, 0 = no growth, -100 = all killed)
Conditions: 10 µM unless noted
Compounds without any hit were thinned out: in the full panel of roughly 83,000, 20% have a hit.
measured-property: growth (%)

• O=C(/C=C/c1ccc(F)cc1)c1ccc(NC(=O)N2CCN(c3cc4c(cc3F)c(=O)c(C(=O)O)cn4C3CC3)CC2)cc1 = 99.5
• NC1[C@H](c2c[nH]c3ccccc23)c2c([nH]c3ccccc23)[C@H]1c1c[nH]c2ccccc12 (stereo partly drawn) = 80.6
• O=C(Cc1ccccc1)NNc1nc(Cl)nc(N2CCN(C(c3ccccc3)c3ccccc3)CC2)n1 = 36.3

====

Tested on: MALME-3M melanoma
Assay: NCI-60 one-dose screen, 48 h (100 = growth as untreated, 0 = no growth, -100 = all killed)
Details: 10 µM unless noted
Compounds without any hit were thinned out: in the full panel of roughly 83,000, 20% have a hit.
measured-property: growth (%)

- O=C1Nc2cc(-c3cccc(O)c3)ccc2/C1=C/c1ccc[nH]1: 16.1
- C=C1C(=O)O[C@H]2[C@H]1CC/C(CNS(=O)(=O)c1cccc3ccccc13)=C\CC[C@@]1(C)O[C@@H]21: -18.4
- Cc1nn(-c2ccccc2)c(Oc2c(Cl)cccc2Cl)c1/C=N/N=c1\sc2ccccc2n1C: 81.6
- CCOC(=O)[C@@H]1CCCN(S(=O)(=O)c2ccc(S(=O)(=O)N(CC)CC)c(F)c2)C1: 79.9
- O=S(=O)(NCCNc1nccc(-c2c(-c3cccc(O)c3)nc3occn23)n1)c1ccc(Cl)cc1: -4.98
- COc1ccc(-c2cnc3c(-c4cccc5ncccc45)cnn3c2)cc1: 15
- CCN1Cc2nc3sc(C)c(C)c3c(=O)n2C=C1C: 79
- C=CCN1C(=O)/C(=C/C(=O)OC)S/C1=N\NC(=O)c1cc2ccc1/C=C\c1ccc(cc1)/C=C\2: 92.4
- CCCOc1ccc(/C=N/Nc2cc(C)nc3ccc(Cl)cc23)cc1: -59
- O=C(NCCc1ccccc1)Nc1ccc2cc3ccc(NC(=O)NCCc4ccccc4)cc3nc2c1: -13.8

====

System: IGROV1 ovarian
Test: NCI-60 one-dose screen, 48 h (100 = growth as untreated, 0 = no growth, -100 = all killed)
Details: 10 µM unless noted
The panel holds about 83,000 compounds, 20% with a hit somewhere; the sample as a whole holds those more often.
growth values for the compounds below.
measured-property: growth (%)

• COc1ccc(NC(N)=NCCCOc2ccc(F)cc2)cc1 = 67.7
• COc1ccc(CCn2cncc2-c2c[nH]c3ccccc23)cc1 = 56.4
• COC(=O)/C=C1\S/C(=N\NC(=O)c2cc3ccc2/C=C\c2ccc(cc2)/C=C\3)N(c2ccccc2)C1=O = 5.97
• N#CC(C#N)=Cc1cc2ccccc2nc1Oc1ccc(C(F)(F)F)cc1 = 79.3
• COc1cc(C2=NN(C(C)=O)C(c3cc(OC)c(OC)c(OC)c3)C2)ccc1O (stereo not drawn) = 2.82
• Cn1cc(-c2nc(-c3c[nH]c4c(Cl)nccc34)cs2)c2cc(F)ccc21 = 117
• CCN(CC)c1ccc(/C=N/NC(=O)CSc2nc3ccccc3c(=O)n2Cc2ccc(S(N)(=O)=O)cc2)c(O)c1 = 26.4
• O=C(NNc1nc2c(F)cccc2n2cccc12)c1cnccn1 = 21.1
• CN(C)c1ccc(C2C(C#N)=C(/N=C/c3ccccc3)Oc3c2ccc2ccccc32)cc1 (stereo not drawn) = 49.8
• O=C1c2ccccc2CCC12OC2c1cn(-c2ccccc2)nc1-c1ccc(Cl)cc1 (stereo not drawn) = 95.1
• CCOC(=O)c1cc(C(=O)c2ccc(Br)cc2)n2ccc(/C=C/c3cc[n+](CC(=O)c4ccc(OC)cc4)cc3)cc12 = 86
• COc1cc(/C(C)=C(\c2ccc(Cl)cc2)c2ccc(OCCN(C)C)cc2)ccc1F = 35.3
• COc1ccccc1NC(=O)C1CC(c2ccc(F)cc2)=NO1 (stereo not drawn) = 105
